Test system: library of 8380 IKZF3 degrons fused to EGFP in Jurkat cells
Assay: Pooled mutant ZF degron library screen (FACS EGFPlow vs EGFP+, NGS), 18 h;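 also: Log2 fold change of EGFPlow over EGFP+ representation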
Assay type: cell-based, human
Details: degron residues 146/147/149/150/152/153/154/155/167: FADIGAAFL
quantity_measured: logFC

Examples with their reported logFC follow.
> print(dat)
                                   molecule                           target.of.assay  quantity.measured  data.value
1  CC(C)(C)c1ccc2c(c1)C(=O)N(C1CCC(=O)NC1=O)C2=O (centres unmarked) [Compound 19]  library of 8380 IKZF3 degrons fused to EGFP in Jurkat cells              logFC        3.42
2  CN1CCN(c2ccc3c(c2)C(=O)N(C2CCC(=O)NC2=O)C3=O)CC1 (centres unmarked) [Compound 23]  library of 8380 IKZF3 degrons fused to EGFP in Jurkat cells              logFC       2.104
3  O=C1CCC(N2C(=O)c3ccc(N4CCOCC4)cc3C2=O)C(=O)N1 (centres unmarked) [Compound 22]  library of 8380 IKZF3 degrons fused to EGFP in Jurkat cells              logFC       2.037
4  O=C1CCC(N2C(=O)c3cccc(NC(c4ccccc4)c4ccccc4)c3C2=O)C(=O)N1 (centres unmarked) [Compound 33]  library of 8380 IKZF3 degrons fused to EGFP in Jurkat cells              logFC     -0.4744

Then there is this molecule:
Name the recorded logFC for O=C1CCC(N2C(=O)c3ccccc3C2=O)C(=O)N1 (centres unmarked) [Compound 1, thalidomide, reference compound] .
-0.52

###

Tested on: Jurkat cells
Assay: TMTpro quantitative proteomics, 16 h
Details: Jurkat whole cell extracts; TMTpro SPS-MS3; protein A2M (P01023); replicate 03
quantity_measured: Scaled value (to 150), replicate 03
API note: the answer field is a bare number with no unit suffix.

Examples with their reported Scaled value (to 150), replicate 03 follow.
> print(dat)
                                   compound  target.of.assay  data.value
1  Nc1cccc2c1CN(C1CCC(=O)NC1=O)C2=O (stereo not shown) [lenalidomide]     Jurkat cells       8.233
2  Nc1cccc2c1C(=O)N(C1CCC(=O)NC1=O)C2=O (stereo not shown) [Compound 2, pomalidomide]     Jurkat cells       7.913
3  CN1CCN(c2ccc3c(c2)C(=O)N(C2CCC(=O)NC2=O)C3=O)CC1 (stereo not shown)     Jurkat cells     12.2998

Name the recorded Scaled value (to 150), replicate 03 for O=C1CCC(N2C(=O)c3ccccc3C2=O)C(=O)N1 (stereo not shown) [Compound 1, thalidomide, reference compound] .
7.506

###

# maps each entry to its Scaled value (to 150), replicate 01
Tested on: Jurkat cells
Assay: TMTpro quantitative proteomics, 16 h
Settings: Jurkat whole cell extracts; TMTpro SPS-MS3; protein AAAS (Q9NRG9); replicate 01

Examples with their reported Scaled value (to 150), replicate 01 follow.
> print(dat)
                                   molecule  data.value
1  Nc1cccc2c1CN(C1CCC(=O)NC1=O)C2=O (stereo not shown) [lenalidomide]        9.75
2  CN1CCN(c2ccc3c(c2)C(=O)N(C2CCC(=O)NC2=O)C3=O)CC1 (stereo not shown)     10.4661
3  O=C1CCC(N2C(=O)c3ccccc3C2=O)C(=O)N1 (stereo not shown) [Compound 1, thalidomide, reference compound]     10.0487

Then there is this molecule:
Name the recorded Scaled value (to 150), replicate 01 for Nc1cccc2c1C(=O)N(C1CCC(=O)NC1=O)C2=O (stereo not shown) [Compound 2, pomalidomide] .
9.781

###

System: Jurkat cells
Test: TMTpro quantitative proteomics, 16 h
Conditions: Jurkat whole cell extracts; TMTpro SPS-MS3; protein AADAT isoform 2 (Q8N5Z0-2); replicate 01
# maps each entry to its Scaled value (to 150), replicate 01
API note: the answer field is a bare number with no unit suffix.

Examples with their reported Scaled value (to 150), replicate 01 follow.
> print(dat)
                                   compound  target.of.assay                    quantity.measured  data.value
1  Nc1cccc2c1CN(C1CCC(=O)NC1=O)C2=O (stereo not shown) [lenalidomide]     Jurkat cells  Scaled value (to 150), replicate 01       9.894
2  O=C1CCC(N2C(=O)c3ccccc3C2=O)C(=O)N1 (stereo not shown) [Compound 1, thalidomide, reference compound]     Jurkat cells  Scaled value (to 150), replicate 01        9.84
3  Nc1cccc2c1C(=O)N(C1CCC(=O)NC1=O)C2=O (stereo not shown) [Compound 2, pomalidomide]     Jurkat cells  Scaled value (to 150), replicate 01       9.467

Name the recorded Scaled value (to 150), replicate 01 for CN1CCN(c2ccc3c(c2)C(=O)N(C2CCC(=O)NC2=O)C3=O)CC1 (stereo not shown) [Cmpd23] .
10.0867

###

Target: Q147A mutant degron (ANQS) fused to EGFP (Homo sapiens, UniProt Q96SW2+Q9UKT9, Q147A)
Construct: pLVX-Sprout-IKZF3 130-189aa Q147A (ANQS); expressed in transfected cells
Sequence (Q9UKT9 130-189 Q147A): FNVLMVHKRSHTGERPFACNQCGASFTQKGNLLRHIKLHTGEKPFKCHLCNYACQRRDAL
Sequence (Q96SW2 whole entry, the tested form may be a part): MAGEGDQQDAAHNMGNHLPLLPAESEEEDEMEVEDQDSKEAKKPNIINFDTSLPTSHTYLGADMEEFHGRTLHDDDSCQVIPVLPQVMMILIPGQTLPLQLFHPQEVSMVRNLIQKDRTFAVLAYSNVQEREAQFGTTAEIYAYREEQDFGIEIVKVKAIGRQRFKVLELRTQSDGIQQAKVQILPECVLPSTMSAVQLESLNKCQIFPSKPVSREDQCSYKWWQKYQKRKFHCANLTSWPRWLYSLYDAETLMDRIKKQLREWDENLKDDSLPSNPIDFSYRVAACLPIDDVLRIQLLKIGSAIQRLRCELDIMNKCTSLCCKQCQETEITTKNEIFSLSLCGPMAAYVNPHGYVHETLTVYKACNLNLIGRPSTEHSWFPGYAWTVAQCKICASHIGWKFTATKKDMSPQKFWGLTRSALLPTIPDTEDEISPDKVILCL
Sequence (Q16531 whole entry partner, the tested form may be a part): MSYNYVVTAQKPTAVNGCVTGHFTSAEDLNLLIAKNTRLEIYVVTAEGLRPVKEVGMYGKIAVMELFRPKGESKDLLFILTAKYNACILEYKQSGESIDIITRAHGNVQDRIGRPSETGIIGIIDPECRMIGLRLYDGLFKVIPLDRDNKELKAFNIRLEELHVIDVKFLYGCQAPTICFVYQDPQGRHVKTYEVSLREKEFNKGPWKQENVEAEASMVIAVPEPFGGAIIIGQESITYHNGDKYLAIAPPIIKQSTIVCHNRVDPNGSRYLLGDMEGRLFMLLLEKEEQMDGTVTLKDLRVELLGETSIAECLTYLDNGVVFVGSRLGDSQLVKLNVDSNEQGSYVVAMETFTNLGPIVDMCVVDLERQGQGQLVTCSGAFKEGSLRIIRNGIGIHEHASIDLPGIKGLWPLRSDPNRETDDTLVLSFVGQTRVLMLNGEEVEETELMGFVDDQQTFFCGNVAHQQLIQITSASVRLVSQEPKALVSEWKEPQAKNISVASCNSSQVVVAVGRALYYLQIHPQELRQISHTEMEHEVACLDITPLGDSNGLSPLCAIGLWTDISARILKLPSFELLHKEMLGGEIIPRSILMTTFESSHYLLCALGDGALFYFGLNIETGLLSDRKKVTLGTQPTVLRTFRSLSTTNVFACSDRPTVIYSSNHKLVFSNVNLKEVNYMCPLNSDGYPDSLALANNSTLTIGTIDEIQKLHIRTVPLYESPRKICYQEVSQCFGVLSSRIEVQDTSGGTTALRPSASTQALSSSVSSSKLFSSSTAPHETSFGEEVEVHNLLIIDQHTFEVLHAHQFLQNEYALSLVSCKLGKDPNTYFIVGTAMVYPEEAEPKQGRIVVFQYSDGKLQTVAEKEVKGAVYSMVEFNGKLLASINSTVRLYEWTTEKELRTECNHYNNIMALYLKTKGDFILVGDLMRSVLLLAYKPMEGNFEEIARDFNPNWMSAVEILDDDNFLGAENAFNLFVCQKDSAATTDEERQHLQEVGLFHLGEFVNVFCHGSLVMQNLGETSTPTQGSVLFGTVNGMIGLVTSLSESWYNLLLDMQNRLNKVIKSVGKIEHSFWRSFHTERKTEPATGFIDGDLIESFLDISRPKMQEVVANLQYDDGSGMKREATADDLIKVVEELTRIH
Test: Ratiometric EGFP:mCherry flow cytometry degradation assay, 18 h
Assay type: cell-based
Conditions: Jurkat, 18 h; Fig 2B; read-out: DMax Q147A/%
Please use 1.0 for Dmax under 80% and 0.0 for everything else, ties included.

Check out these entries, answers already filled in.
> print(dat)
                                   molecule  label.value
1  O=C1CCC(N2C(=O)c3cccc(OC(c4ccccc4)c4ccccc4)c3C2=O)C(=O)N1 (stereo not drawn)          0.0
2  O=C1CCC(N2C(=O)c3cccc(Br)c3C2=O)C(=O)N1 (stereo not drawn)          1.0
3  O=C1CCC(N2C(=O)c3cccc(NCc4ccccc4)c3C2=O)C(=O)N1 (stereo not drawn)          0.0

With those in mind, consider the next molecule.
Record Cc1ccccc1COc1cccc2c1C(=O)N(C1CCC(=O)NC1=O)C2=O (stereo not drawn) : is its Dmax strictly below 80%?
1.0

###

Tested on: Jurkat cells
Assay: TMTpro quantitative proteomics, 16 h
Settings: Jurkat whole cell extracts; TMTpro SPS-MS3; protein AACS (Q86V21); replicate 02
# maps each entry to its Scaled value (to 150), replicate 02

> print(dat)
                                   compound  data.value
1  Nc1cccc2c1CN(C1CCC(=O)NC1=O)C2=O (stereo not shown) [lenalidomide]     10.0368
2  O=C1CCC(N2C(=O)c3ccccc3C2=O)C(=O)N1 (stereo not shown) [Compound 1, thalidomide, reference compound]     10.5542
3  CN1CCN(c2ccc3c(c2)C(=O)N(C2CCC(=O)NC2=O)C3=O)CC1 (stereo not shown)       9.749

Then there is this compound:
Name the recorded Scaled value (to 150), replicate 02 for Nc1cccc2c1C(=O)N(C1CCC(=O)NC1=O)C2=O (stereo not shown) [Compound 2, pomalidomide] .
10.2184

###

Target: Q147A mutant degron (ANQS) fused to EGFP (Homo sapiens, UniProt Q96SW2+Q9UKT9, Q147A)
Construct: pLVX-Sprout-IKZF3 130-189aa Q147A (ANQS); expressed in transfected cells
Assay: Ratiometric EGFP:mCherry flow cytometry degradation assay, 18 h
Type: cell-based
Settings: Jurkat, 18 h; Fig 2B; read-out: DMax Q147A/%
# maps each entry to its Dmax
Note: unit % is implicit; provide only the numeric part.

Examples with their reported Dmax follow.
> print(dat)
                                   molecule  unit  data.value
1  O=C1CCC(N2C(=O)c3cccc(OCc4cccnc4)c3C2=O)C(=O)N1 (centres unmarked) [Compound 31]     %          82
2  Cc1cccc2c1C(=O)N(C1CCC(=O)NC1=O)C2=O (centres unmarked) [Compound 16]     %          87
3  CC(C)(C)c1ccc2c(c1)C(=O)N(C1CCC(=O)NC1=O)C2=O (centres unmarked) [Compound 19]     %          87

Name the recorded Dmax for COc1cccc2c1C(=O)N(C1CCC(=O)NC1=O)C2=O (centres unmarked) [Compound 6] .
75

Check O=C1CCC(N2C(=O)c3ccc(Cl)cc3C2=O)C(=O)N1 (centres unmarked) [Compound 11] too.
37

Check Cc1ccc2c(c1)C(=O)N(C1CCC(=O)NC1=O)C2=O (centres unmarked) [Compound 17] too.
72

###

# maps each entry to its Dmax
Biological target: Q147A mutant degron (ANQS) fused to EGFP (Homo sapiens, UniProt Q96SW2+Q9UKT9, Q147A)
Construct: pLVX-Sprout-IKZF3 130-189aa Q147A (ANQS); expressed in transfected cells
Assay: Ratiometric EGFP:mCherry flow cytometry degradation assay, 18 h
Format: cell-based
Settings: Jurkat, 18 h; Fig 2B; read-out: DMax Q147A/%

Name the recorded Dmax for CN(C)c1ccc2c(c1)C(=O)N(C1CCC(=O)NC1=O)C2=O (centres unmarked) .
86%

Check O=C1CCC(N2C(=O)c3ccc(-c4ccccc4)cc3C2=O)C(=O)N1 (centres unmarked) too.
66%

Check O=C1CCC(N2C(=O)c3cccc(NC(c4ccccc4)c4ccccc4)c3C2=O)C(=O)N1 (centres unmarked) too.
97%
